The origin of these recorded values is patent US20240279202A1.

Measured Dmax of individual entries
- subjectOfTest: UniProtKB Q08881
- measurementProtocol: ITK degradation HiBiT assay
- Type: cell-based
- Design: expressed in transfected cells; host or cells: Molt4 (ATCC CRL-1552), monoclonal clone 1C10, engineered to carry the HiBiT tag
- measurementContext: MOLT-4, C-terminal HiBiT-tagged Molt4 cells, 4 hrs
testReadout: Dmax

* C[C@@]12Cc3[nH]nc(C(=O)Nc4cnn(C5CCC(CN6CCN(c7ccc(C8CCC(=O)NC8=O)cn7)CC6)CC5)c4)c3C[C@@H]1C2(F)F (mixture of isomers) | 88%
* CC1(C)CCc2c(C(=O)Nc3cnn([C@H]4CC[C@H](C(=O)N5CCN(c6ccc(C7CCC(=O)NC7=O)cc6)CC5)CC4)c3)n[nH]c2C1 (mixture of isomers) | 76%
* Cn1c(=O)n(C2CCC(=O)NC2=O)c2ccc(N[C@H]3CC[C@H](C(=O)N4CCC(n5cc(NC(=O)c6n[nH]c7c6C[C@@H]6C(F)(F)[C@]6(C)C7)cn5)CC4)CC3)cc21 (mixture of isomers) | 80%
* Cn1c(=O)n([C@@H]2CCC(=O)NC2=O)c2cccc(N3CCC(CN4CCN(C(=O)c5ccc6cc(-c7n[nH]c8c7CCC(C)(C)C8)[nH]c6c5)CC4)CC3)c21 | 86%
* C[C@@]12Cc3[nH]nc(C(=O)Nc4ccc(C5CCN(CC6CCN(c7ccc(C8CCC(=O)NC8=O)cn7)CC6)CC5)cc4)c3C[C@@H]1C2(F)F (some centres unmarked) | 91%

* * *

Catalogue of molecules with associated DC50
- subjectOfTest: ITK (Homo sapiens, UniProt Q08881)
- Sequence (Q08881 whole entry): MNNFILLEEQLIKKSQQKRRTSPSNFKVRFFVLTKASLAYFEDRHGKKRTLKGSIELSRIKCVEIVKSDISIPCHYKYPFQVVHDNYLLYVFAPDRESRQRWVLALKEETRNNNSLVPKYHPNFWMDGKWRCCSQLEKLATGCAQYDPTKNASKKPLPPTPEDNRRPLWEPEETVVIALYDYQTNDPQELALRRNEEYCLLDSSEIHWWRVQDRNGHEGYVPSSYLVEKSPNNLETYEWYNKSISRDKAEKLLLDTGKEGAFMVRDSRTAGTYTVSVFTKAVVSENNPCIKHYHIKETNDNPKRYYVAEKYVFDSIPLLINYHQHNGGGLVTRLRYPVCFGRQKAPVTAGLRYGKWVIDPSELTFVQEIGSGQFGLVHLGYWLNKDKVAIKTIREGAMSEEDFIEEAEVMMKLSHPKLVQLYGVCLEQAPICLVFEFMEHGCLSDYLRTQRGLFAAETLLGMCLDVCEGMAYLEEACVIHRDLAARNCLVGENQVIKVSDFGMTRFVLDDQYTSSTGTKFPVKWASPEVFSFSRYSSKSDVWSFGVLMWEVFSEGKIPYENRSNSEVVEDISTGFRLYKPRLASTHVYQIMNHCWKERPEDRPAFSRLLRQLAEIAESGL
- measurementProtocol: ITK degradation HiBiT assay
- Assay type: cell-based
- Design: expressed in transfected cells; host or cells: Molt4 (ATCC CRL-1552), monoclonal clone 1C10, engineered to carry the HiBiT tag
- measurementContext: C-terminal HiBiT-tagged Molt4 cells, 4 hrs
testReadout: DC50 (nM)

- CN(C(=O)CC1CCN(CC2CCN(c3ccc(C(=O)NC4CCC(=O)NC4=O)nc3)CC2)CC1)c1ccc2cc(-c3n[nH]c4c3C[C@@H]3C(F)(F)[C@]3(C)C4)[nH]c2c1 (stereo partly drawn): 0.5
- CN(C(=O)CCC1CCN(c2ccc3c(c2)C(=O)N(C2CCC(=O)NC2=O)C3=O)C1)c1ccc2cc(-c3n[nH]c4c3CCC(C)(C)C4)[nH]c2c1 (stereo not drawn): 10.4
- CC1(C)CCc2c(-c3cc4ccc(C(=O)N5CCC(C6CCN(c7ccc(C8CCC(=O)NC8=O)cn7)CC6)CC5)cc4[nH]3)n[nH]c2C1 (stereo not drawn): 13.4
- C[C@@]12Cc3[nH]nc(C(=O)Nc4cnn([C@@H]5CCN(CC6CCN(c7ccc(C(=O)N[C@H]8CCC(=O)NC8=O)nc7)CC6)C[C@H]5F)c4)c3C[C@@H]1C2(F)F: 3.4
- C[C@@H](C(=O)N(C)c1ccc2cc(-c3n[nH]c4c3CCC(C)(C)C4)[nH]c2c1)N1CCN(CC2CCN(c3ccc(C4CCC(=O)NC4=O)cn3)CC2)CC1 (stereo partly drawn): 0.48
- C[C@@]12Cc3[nH]nc(C(=O)Nc4cnn([C@@H]5CCN(C[C@H]6CCN(c7ccc(C8CCC(=O)NC8=O)cc7)C6)C[C@H]5F)c4)c3C[C@@H]1C2(F)F (stereo partly drawn): 3.7
- C[C@@]12Cc3[nH]nc(C(=O)Nc4cnn(C5CCN(CC6CCN(c7ccc(C8CCC(=O)NC8=O)cc7F)CC6)CC5)c4)c3C[C@@H]1C2(F)F (mixture of isomers): 0.14
- C[C@@]12Cc3[nH]nc(C(=O)Nc4cnn(C5CCN(CC6CCN(c7ccc(N8CCC(=O)NC8=O)cn7)CC6)CC5)c4)c3C[C@@H]1C2(F)F: 0.4
- C[C@@]12Cc3[nH]nc(-c4cc5ccc(C(=O)N6CCN(CC7CCN(c8ccc(C9CCC(=O)NC9=O)cc8)CC7)CC6)cc5[nH]4)c3C[C@@H]1C2 (mixture of isomers): 8.5
- C[C@@H](C(=O)N(C)c1ccc2cc(-c3n[nH]c4c3CCC(C)(C)C4)[nH]c2c1)N1CCN(C(=O)C2CN(C3CCN(c4ccc5c(c4)C(=O)N(C4CCC(=O)NC4=O)C5=O)CC3)C2)CC1 (stereo partly drawn): 1.8
- C[C@@]12Cc3[nH]nc(C(=O)Nc4cnn([C@H]5CCN(C[C@@H]6CCN(c7ccc(C8CCC(=O)NC8=O)cc7)C6)C[C@@H]5F)c4)c3C[C@@H]1C2(F)F (stereo partly drawn): 1.7
- CC1(C)CCc2c(-c3cc4ccc(C(=O)N5CCN(CC6CCN(c7ccc(C8CCC(=O)NC8=O)cc7F)CC6)CC5)cc4[nH]3)n[nH]c2C1 (stereo not drawn): 1.42
- C[C@@]12Cc3[nH]nc(-c4nc5ccc(C(=O)N6CCN(CC7CCN(c8ccc(C9CCC(=O)NC9=O)cc8)CC7)CC6)cc5[nH]4)c3C[C@@H]1C2(F)F (mixture of isomers): 0.6
- C[C@@H](C(=O)N(C)c1ccc2cc(-c3n[nH]c4c3CCC(C)(C)C4)[nH]c2c1)N1CCN(CC2CCN(c3ccc(N4CCC(=O)NC4=O)cn3)CC2)CC1: 2
- C[C@@]12Cc3[nH]nc(C(=O)Nc4cnn(C5CN(C(=O)C6CN(c7ccc(C8CCC(=O)NC8=O)cn7)C6)C5)c4)c3C[C@@H]1C2(F)F (stereo partly drawn): 1.8
- C[C@@]12Cc3[nH]nc(C(=O)Nc4cnn(CC5CN(C(=O)C6CN(c7ccc(C8CCC(=O)NC8=O)cn7)C6)C5)c4)c3C[C@@H]1C2(F)F (stereo partly drawn): 3.9
- C[C@@]12Cc3[nH]nc(C(=O)Nc4cnn(CC5CN(C(=O)C6CCN(c7ccc(C8CCC(=O)NC8=O)cn7)CC6)C5)c4)c3C[C@@H]1C2(F)F (stereo partly drawn): 0.21
- C[C@@H](C(=O)N(C)c1ccc2cc(-c3n[nH]c4c3CCC(C)(C)C4)[nH]c2c1)N1CCN(C[C@@H]2CCN(c3ccc4c(c3)n(C)c(=O)n4C3CCC(=O)NC3=O)C2)CC1 (stereo partly drawn): 2.3
- C[C@@]12Cc3[nH]nc(C(=O)Nc4cnn([C@@H]5CCN(CC6CCN(c7ccc([C@H]8CCC(=O)NC8=O)cc7)CC6)C[C@H]5F)c4)c3C[C@@H]1C2(F)F (single isomer, unassigned): 1.1
- C[C@@H](C(=O)N(C)c1ccc2cc(-c3n[nH]c4c3CCC(C)(C)C4)[nH]c2c1)N1CCN(C[C@H]2CCN(c3ccc4c(c3)C(=O)N(C3CCC(=O)NC3=O)C4=O)C2)CC1 (stereo partly drawn): 3.4
- CN(c1ccc(C2CCC(=O)NC2=O)cn1)C1CCN(CC2CCN(C(=O)c3ccc4cc(-c5n[nH]c6c5CCC(C)(C)C6)[nH]c4c3)CC2)CC1 (stereo not drawn): 0.002
